Tested on: HCC4006
Assay: area under confluence curve of osimertinib + compound combination regimen (DTP regrowth); compare to osimertinib-only DTP control AUC of the same experiment (AUC (confluence x time, arbitrary))
Details: test compound dose 1000 nM; dosing schedule: upfront; osimertinib-only DTP control AUC in same experiment: 17269; DMSO control AUC in same experiment: 18415
reported property: area under confluence curve

molecule="Cc1nc(N2CCC3(CC2)CO[C@@H](C)[C@H]3N)c(CO)nc1-c1cccc(Cl)c1Cl + C=CC(=O)Nc1cc(Nc2nccc(-c3cn(C)c4ccccc34)n2)c(OC)cc1N(C)CCN(C)C" measured_value=14300
molecule="O=C(c1cc(Cc2n[nH]c(=O)c3ccccc23)ccc1F)N1CCN(C(=O)C2CC2)CC1 [Olaparib] + C=CC(=O)Nc1cc(Nc2nccc(-c3cn(C)c4ccccc34)n2)c(OC)cc1N(C)CCN(C)C" measured_value=18000
molecule="C[C@@H](Oc1cc(-c2cnn(C3CCNCC3)c2)cnc1N)c1c(Cl)ccc(F)c1Cl [Crizotinib] + C=CC(=O)Nc1cc(Nc2nccc(-c3cn(C)c4ccccc34)n2)c(OC)cc1N(C)CCN(C)C" measured_value=13000
molecule="COc1nn(C)cc1Nc1nccc(-c2c[nH]c3c(NC(=O)[C@@H](C)N4CCN(C)CC4)cccc23)n1 + C=CC(=O)Nc1cc(Nc2nccc(-c3cn(C)c4ccccc34)n2)c(OC)cc1N(C)CCN(C)C" measured_value=18700
